- measured-target: StOASS-A (Salmonella typhimurium, UniProt P0A1E3)
- Construct: His-tag (with TEV site) (cleaved yes); made in house; host or cells: E. coli Rosetta (DE3)
- Sequence (P0A1E3 whole entry): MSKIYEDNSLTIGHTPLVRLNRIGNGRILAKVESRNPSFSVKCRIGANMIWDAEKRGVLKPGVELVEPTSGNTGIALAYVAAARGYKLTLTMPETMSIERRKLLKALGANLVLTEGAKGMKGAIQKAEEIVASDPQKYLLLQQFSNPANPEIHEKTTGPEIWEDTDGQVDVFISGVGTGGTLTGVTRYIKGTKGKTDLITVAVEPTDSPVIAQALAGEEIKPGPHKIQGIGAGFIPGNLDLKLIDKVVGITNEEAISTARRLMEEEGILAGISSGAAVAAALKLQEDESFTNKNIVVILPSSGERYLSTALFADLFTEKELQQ
- protocol-details: Fluorescence binding assay on purified recombinant StOASS-A
- Design: species or system S. Typhimurium
- assay-conditions: 20 °C, 100 mM HEPES, 5% DMSO, pH 7.0; racemic mixture; esters tested up to 100 μM
- Procedure: The affinity of the compounds for StOASS-A and StOASS-B was determined on the purified recombinant proteins by an in vitro fluorescence binding assay. Measurements were carried out at 20 °C in a 3 mm pathlength quartz microcuvette in 100 mM HEPES, 5% DMSO (Applichem, Darmstadt, Germany), pH 7.0, using a Fluoromax-4 (Horiba Jobin-Yvon, Kyoto, Japan) spectrofluorometer. […]
measurement-kind: KD (μM) OASS-A

>>> test_result("Cc1ccc(C[C@@]2(C(=O)O)C[C@H]2c2cccc(N3CCNCC3)c2)cc1 (relative stereo) [Compound 21i]")
"good activity"
>>> test_result("CCOC(=O)[C@]1(Cc2ccc(C)cc2)C[C@H]1c1cccc(-c2cccc(F)c2)c1 (relative stereo)")
"No binding"
>>> test_result("Cc1ccc(C[C@@]2(C(=O)O)C[C@H]2c2cccc(N3CCN(C)CC3)c2)cc1 (relative stereo) [Compound 21j]")
"good activity"
>>> test_result("CCOC(=O)[C@]1(Cc2ccc(C)cc2)C[C@H]1c1cccc(-c2ccccc2)c1 (relative stereo)")
"No binding"

====

- System: MDBK cells
- protocol-details: Cytotoxicity assay (MTT) on MDBK cells
- Assay type: cell-based, bovine
- assay-conditions: 32, 16, 8 µg/mL; MTT test
measurement-kind: Toxicity on viability of MDBK cells

>>> test_result("CCOC(=O)[C@]1(Cc2ccc(C)cc2)C[C@H]1c1cccc(-c2cn[nH]c2)c1 (relative stereo)")
"high toxicity profiles"
>>> test_result("CCOC(=O)C1(Cc2ccc(C)cc2)CC1c1cccc(N2CC(C)OC(C)C2)c1 (centres unmarked) [Compound 12h]")
"lowest toxicity profile"
>>> test_result("Cc1ccc(CC2(C(=O)O)CC2c2cccc(N3CC(C)OC(C)C3)c2)cc1 (centres unmarked) [Compound 13h]")
"lowest toxicity profile"
>>> test_result("CCOC(=O)[C@]1(Cc2ccc(C)cc2)C[C@H]1c1cccc(N2CCN(C)CC2)c1 (relative stereo) [Compound 20j]")
"high toxicity profiles"
>>> test_result("CCOC(=O)[C@]1(Cc2ccc(C)cc2)C[C@H]1c1cccc(N2CCNCC2)c1 (relative stereo) [Compound 20i]")
"high toxicity profiles"

====

- measured-target: StOASS-A (Salmonella typhimurium, UniProt P0A1E3)
- Construct: His-tag (with TEV site) (cleaved yes); made in house; host or cells: E. coli Rosetta (DE3)
- protocol-details: Fluorescence binding assay on purified recombinant StOASS-A
- Design: species or system S. Typhimurium
- assay-conditions: 20 °C, 100 mM HEPES, 5% DMSO, pH 7.0; racemic mixture; esters tested up to 100 μM
measurement-kind: KD (μM) OASS-A

>>> test_result("CCOC(=O)[C@]1(Cc2ccc(C)cc2)C[C@H]1c1cccc(-c2cn[nH]c2)c1 (relative stereo)")
"No binding"
>>> test_result("CCOC(=O)[C@]1(Cc2ccc(C)cc2)C[C@H]1c1cccc(N2CCOCC2)c1 (relative stereo) [Compound 12g]")
"No binding"
>>> test_result("Cc1ccc(C[C@@]2(C(=O)O)C[C@H]2c2cccc(-c3cc(O)cc(F)c3)c2)cc1 (relative stereo)")
"low nanomolar range"
>>> test_result("Cc1ccc(C[C@@]2(C(=O)O)C[C@H]2c2cccc(-c3cccc(F)c3)c2)cc1 (relative stereo)")
"low nanomolar range"
>>> test_result("CCOC(=O)[C@]1(Cc2ccc(C)cc2)C[C@H]1c1cccc(N2CCNCC2)c1 (relative stereo) [Compound 20i]")
"No binding"
>>> test_result("CCOC(=O)[C@]1(Cc2ccc(C)cc2)C[C@H]1c1cccc(N2CCN(C)CC2)c1 (relative stereo) [Compound 20j]")
"No binding"
>>> test_result("CCOC(=O)C1(Cc2ccc(C)cc2)CC1c1cccc(N2CC(C)OC(C)C2)c1 (stereo not shown) [Compound 12h]")
"No binding"
